test: inhibitors of E-selectin induction by TNFa, primary screen, imaging, HUVEC, immunofluorescence, MLSMR starter and 10KST1 sets (AID 487); conditions: HUVEC TNFalpha-induced E-selectin immunofluorescence imaging, at 2 µM; stronger effect = higher value;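 note: signal is fraction of cell area covered by stained E-selectin grains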
inhibition class ranges: low band (below -60%), middle band (-60% to below -20%), high band (-20% or more)

- compound: "Cc1cc(Nc2ccccc2)n(-c2ccccc2)n1"
  label_value: "middle band"
- compound: "O=C(CN1CCN(Cc2ccc3c(c2)OCO3)CC1)Nc1ccc2c(c1)OCCO2"
  label_value: "high band"
- compound: "Cn1c(=O)c2c(nc(Br)n2CCSc2nnnn2-c2ccccc2)n(C)c1=O"
  label_value: "high band"
- compound: "CCOC(=O)C(NC(C)=O)(Nc1ccc(S(=O)(=O)Nc2nccs2)cc1)C(F)(F)F (centres undefined)"
  label_value: "high band"
- compound: "Cc1cc(=O)n(CCC(=O)O)c2ccccc12"
  label_value: "middle band"

Field: class (inhibition) — entry: Cc1ccc(C(=O)C2C(c3cccs3)NC(=O)NC2(O)C(F)(F)F)cc1 (centres undefined)
low band

Field: class (inhibition) — entry: CCOC(=O)c1c(C)oc2ccc(OCC(=O)C(C)(C)C)cc12
middle band

Field: class (inhibition) — entry: O=c1c2sc3nc(N4CCOCC4)c4c(c3c2ncn1Cc1ccco1)CCCC4
low band

Field: class (inhibition) — entry: COc1cc(OC)c(C2N(C)c3ccccc3N2C)cc1OC
low band

Field: class (inhibition) — entry: Cc1ccc(-c2nn(CCC(=O)NCC3CCCO3)c(=O)c3ccccc23)cc1 (centres undefined)
low band

Field: class (inhibition) — entry: CC(C)COC(=O)N(C)c1ccc(C(O)(C(F)(F)F)C(F)(F)F)cc1
middle band

Field: class (inhibition) — entry: c1ccc(-n2ncc3c(NC4CCCCCC4)ncnc32)cc1
middle band

Field: class (inhibition) — entry: CCC(=O)Nc1ccc(-c2nnc(-c3ccccc3)o2)cc1
high band

----------
assay: inhibitors of TNFa-induced NFkB p65 translocation, primary screen, imaging, HUVEC, MLSMR starter and 10KST1 sets (AID 438); details: HUVEC TNFa-induced p65 nuclear translocation; at 2 µM, stronger effect = higher value, 0% TNFa-plus-vehicle, 100% no-TNFa wells;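 note: compound added about 3h40 before a 20 min TNFalpha stimulation; signal is the nuclear over cytoplasmic p65 intensity ratio per well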
Reported inhibition values follow for various molecules
Respond with the bare value in %.

- molecule: "Cc1ccc(-c2noc(CCC(=O)NC3CCCc4ccccc43)n2)cc1 (stereo not drawn)"
  inhibition, %: -2
- molecule: "CCN1CCc2c(C#N)c(N3CCCCC3)nc(N3CCOCC3)c2C1"
  inhibition, %: -7.1

State its inhibition: CCCc1cc(=O)[nH]c(SCc2ccccc2)n1
6.7

State its inhibition: CCCCCc1c(C)nc(Nc2nc(C)c3cc(OC)ccc3n2)[nH]c1=O
5

State its inhibition: CCOC(=O)C1CCN(c2nc3ccccc3nc2C(C#N)C(=O)OC(C)COC)CC1 (stereo not drawn)
-11.6

State its inhibition: CCOC(=O)c1[nH]c(C)c(C(=O)NC)c1C
-1.3

State its inhibition: CCC(C)(C(=O)NC1CCCCC1)N(Cc1ccco1)C(=O)c1ccc2c(c1)OCO2 (stereo not drawn)
-9.3

State its inhibition: c1ccc2c(N3CCCCC3)nc(N3CCCCC3)nc2c1
-2.8

State its inhibition: O=C(CCS(=O)(=O)c1cccc2nsnc12)NCc1ccccc1
3.1

State its inhibition: O=C(C1CC1)N1CCc2cc(Br)cc(S(=O)(=O)N3CCOCC3)c21
2.2

State its inhibition: COc1ccc(OC)c(C2/C(=C(/O)c3ccccc3)C(=O)C(=O)N2Cc2ccco2)c1 (stereo not drawn)
-11.7

State its inhibition: O=C(c1ccc2c(c1)[nH]c(=S)n1c3ccccc3nc21)N1CCN(c2ncccn2)CC1
4.8

State its inhibition: CCOC(=O)c1cnn2c1[nH]c(=O)c1ccccc12
-6.1

State its inhibition: COc1ccc(-c2nc3c(Br)c(N)c(Br)cc3o2)cc1
-7.6

State its inhibition: COc1cc(C(O)c2nc3ccccc3n2C)cc(OC)c1OC (stereo not drawn)
25.8

State its inhibition: CC(C(=O)NC(=O)NCc1ccccc1)N1C(=O)c2ccccc2C1=O (stereo not drawn)
6.1

State its inhibition: O=c1c2ccccc2nc(SCc2cccc(F)c2)n1Cc1ccco1
-3.4

State its inhibition: O=C(c1cccs1)N1CCN=C1SCc1ccccc1
3.1

State its inhibition: O=C(Nc1ccc(S(=O)(=O)Nc2ccc(Cl)cc2)cc1)C1CCCO1 (stereo not drawn)
-6.5

State its inhibition: CS(=O)(=O)N(CC(=O)NCCSCc1cccc(Cl)c1)c1ccc2c(c1)OCO2
-4.5
